Each entry below lists one item and its recorded growth value.
# Tested on: OVCAR-3 ovarian
# MEASUREMENT NOTES: NCI-60 one-dose screen, 48 h (100 = growth as untreated, 0 = no growth, -100 = all killed)
# CONDITION DETAILS: 10 µM unless noted
# Description: Growth inhibition of the OVCAR-3 human tumor cell line is measured as a screen for anti-cancer activity. Cells are grown in 96 well plates and exposed to the test compound for 48 hours. Compounds are tested at a single concentration, which is 10^-5 M for most compounds. The reported endpoint is percent growth (GI% or GIPRCNT), where numbers from 0 - 100% represent growth inhibition, and numbers from -100% - 0 represent cell death. For example, a value of 40 represents 60% growth inhibition. […]
About 83,000 compounds went through this panel and 20% of them were active in at least one assay; those are over-represented in the sample as a whole.
# unit: % | format: bare number

Solved entries:
C#Cc1nc2ccccc2c(=O)[nH]1	-82.3
O=C(O)c1c([N+](=O)[O-])cnc2ccccc12	118
CCOC(=O)Cc1cnn(C)c1NC(=O)c1ccc(Cl)cc1NC(C)=O	108
COc1cc(OC)c(/C=C/C(=O)c2c(OC)cc(OC)cc2OC)c(OC)c1	6.92
C=C1CC2(OC1=O)C(=O)N(CCCCCCCN1C(=O)C3(CC(=C)C(=O)O3)c3ccccc31)c1ccccc12 (stereo not given)	3.44

# input Item COc1cc(-c2c3sc(=O)[nH]c3nc3c2c(=O)[nH]n3C(C)C)cc2c1OCO2 has what recorded growth?
# output 114

# input Next molecule: Oc1ccccc1/C=N/Nc1ccc2ccccc2n1
# output 8.79

# input Next molecule: Oc1cccc(Nc2nccc(-c3ccc4ccccc4c3)n2)c1
# output 14.7

# input Next molecule: CS(=O)(=O)c1ccc(-c2cnc3ccc(-c4cccc(S(C)(=O)=O)c4)nn23)cc1
# output 33.3

# input Next molecule: COc1cnc2c(c1)C(=O)c1c-2n(CCCBr)c(=O)c2cc([N+](=O)[O-])ccc12
# output -44.1

Data credit: PubChem BioAssay (NCI)
